- Tested on: Mix cells
- protocolDescription: MTT cytotoxic assay, mixed culture of microglia
- Type: cell-based
- assayContext: normal cells, 48 h, read-out: Inhibitory concentration (IC50) Mix cells
endpointName: IC50 (µM)
# unit: µM | format: bare number

{"columns": ["molecule", "systemName", "unitOfMeasurement", "IC50"],
 "data": [
  ["CC(C)=CCCC(C)C1=C(O)C(=O)C(C)=C(Sc2ccc(F)cc2CO)C1=O (stereo not drawn) [Compound 9]", "Mix cells", "µM", 179]
]}

Then there is this molecule:
Challenge: Quick check: IC50 of CC(C)=CCC[C@@H](C)C1=C(O)C(=O)C(C)=CC1=O [Compound 1, perezone] ?
Response given: 63.1
